Cited source: patent US20060079497A1

Biological target: HIV-RT (Human immunodeficiency virus type 1 group M subtype B, UniProt P04585)
Construct: 1 unit/mL of HIV-RT (Worthington Biochemical Corp., Freehold, N.J.); purchased Worthington Biochemical Corp., Freehold, N.J
Test: Checkerboard combination of lavendamycin analogs with AZT-triphosphate in HIV-RT enzyme assay (Chou and Talalay)
Assay type: biochemical
Conditions: analogue 0.5 μM + AZT 0.007 μM, Trial 2
Description: […] The assay procedure described below is adapted from Okada et al. (Okada, H.; Mukai, H.; Inouye, Y; Nakamura, S. “Biological Properties of Streptonigrin Derivatives II. Inhibition of Reverse Transcriptase Activity,” J. Antibiot., 1986, 39, 306-308). […] For each assay, the reaction mixture containing 8× buffer, double distilled H2O, ^3HTTP, template-primer and HIV-RT was pre-mixed in a 15-mL sterile tube in quantities required for the particular experiment. […]
Listed below: Combination index values for each entry.

Molecule	Target desc	Combination index
CC(=O)NC1=CC(=O)c2ccc(-c3nc(C(N)=O)cc4c3[nH]c3ccccc34)nc2C1=O [Compound 16, 7-N-Acetyldemethyllavendamycin Amide]	HIV-RT (Human immunodeficiency virus type 1 group M subtype B, UniProt P04585)	0.65
CCCCCCCCOC(=O)c1cc2c([nH]c3ccccc32)c(-c2ccc3c(n2)C(=O)C(N)=CC3=O)n1	HIV-RT (Human immunodeficiency virus type 1 group M subtype B, UniProt P04585)	0.61
COC(=O)c1nc(-c2ccc3c(n2)C(=O)C(NC(C)=O)=CC3=O)c2[nH]c3ccccc3c2c1C	HIV-RT (Human immunodeficiency virus type 1 group M subtype B, UniProt P04585)	0.71
CCCCOC(=O)c1cc2c([nH]c3ccccc32)c(-c2ccc3c(n2)C(=O)C(NC(=O)CCC)=CC3=O)n1	HIV-RT (Human immunodeficiency virus type 1 group M subtype B, UniProt P04585)	0.71
CC(=O)NC1=CC(=O)c2ccc(-c3nc(C(=O)O)cc4c3[nH]c3ccccc34)nc2C1=O	HIV-RT (Human immunodeficiency virus type 1 group M subtype B, UniProt P04585)	0.42
